Measured values drawn from patent US4211772A for this set.

# test description: i.p. toxicity in Swiss EOPS mice, mortality at 14 days
# test parameters: mouse, in vivo, ip; 1000 mg/kg i.p., DMSO solution at 1/2; read-out: percentages of mortality at the end of 14 days
# Description: The i.p. toxicities of certain compounds of the present invention were determined using male and female Swiss EOPS mice for administrations in DMSO solution at 1/2 under a volume of P/100.
The following compounds are listed with their measured mortality at 336 h values.
Answer format: numeric, % implied, no suffix.

compound | mortality at 336 h / %
COc1ccc(-c2cc(=O)c3c(O)cc(O[C@@H]4O[C@H](CO[C@@H]5O[C@@H](C)[C@H](O)[C@H]6OC(C)(C)O[C@@H]56)[C@@H](O)[C@H](O)[C@H]4O)cc3o2)cc1O | 0

-- ask Output measured mortality at 336 h for this item: COc1ccc(C2CC(=O)c3c(O)cc(O[C@@H]4O[C@H](CO[C@@H]5O[C@@H](C)[C@H](O)[C@H]6OC(C)(C)O[C@@H]56)[C@@H](O)[C@H](O)[C@H]4O)cc3O2)cc1O (some centres unmarked)
-- reply 0

-- ask Consider the compound "O=c1ccc2cc(O[C@@H]3O[C@@H]4COC5(CCCCC5)O[C@H]4[C@H](O)[C@H]3O)c(O)cc2o1" and give its recorded mortality at 336 h.
-- reply 80

-- ask Give the reported mortality at 336 h for this compound. C[C@@H]1O[C@@H](O[C@H]2[C@H](Oc3cc(O)c4c(c3)OC(c3ccc(O)cc3)CC4=O)O[C@H](CO)[C@@H](O)[C@@H]2O)[C@@H]2OC(C)(C)O[C@@H]2[C@H]1O (some centres unmarked)
-- reply 0

-- ask Please supply the value of reported mortality at 336 h for the item "CC1(C)OC[C@H]2O[C@@H](Oc3cc4ccc(=O)oc4cc3O)[C@H](O)[C@@H](O)[C@@H]2O1"
-- reply 0
